B1: TPR t1 (parent)
chain: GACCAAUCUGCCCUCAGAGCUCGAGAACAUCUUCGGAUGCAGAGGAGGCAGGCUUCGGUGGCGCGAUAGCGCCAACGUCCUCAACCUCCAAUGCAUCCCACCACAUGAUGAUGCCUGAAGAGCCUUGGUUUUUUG

- Variants of: B1
- experiment notes: polymerase ribozyme fitness, log enrichment relative to wild type (log ratio); higher = more active; in vitro selection for triplet polymerase activity
measurement kind: polymerase ribozyme fitness (log ratio)

variant	obs value
G47A G51C C98A C102U C115U G127U	-7.84
G48A C86U	-0.5
G25U G39U U106A C114U	-5.15
A29C A37G	-2.11
G71A C79U A83G U129G	-3.32
C15U C56G G61U A66G C73U C94G C97G C98A U112G A119C G135C	-5.66
A41U C123U	-0.183
C72A G117C	-4.09
G61U C97A	-3.26
C62A A83U A90U A91C	-3.43
A6U U7G C8G C56A G63A	-2.06
U7G G77A A83C	0.167
G25C G61U	-3.53
A27U G61A C86U	-2.19
C15U U132A	-0.984
U78A C88G C98U G135A	-2.63
G69C C89G C123A G135U	-4.06
C40U U92C G110A G117C	-6.39
G44U C56A C102U	-3.03
C34G A46C U106A G110A U130G U131A	-5.46
C3G A95G	-2.02
C11G G42C A95U	-1.3
